Measured values drawn from patent US20240190986A1 for this set.

Target System: T1, MSLN·His protein (human, UniProt Q13421 296-580, limits assumed)
T1 construct: Bought protein; also called human MSLN·His antigen; not shown: His tag
T1 sequence (Q13421 other isoform, or with tags, fused parts or gaps limits assumed): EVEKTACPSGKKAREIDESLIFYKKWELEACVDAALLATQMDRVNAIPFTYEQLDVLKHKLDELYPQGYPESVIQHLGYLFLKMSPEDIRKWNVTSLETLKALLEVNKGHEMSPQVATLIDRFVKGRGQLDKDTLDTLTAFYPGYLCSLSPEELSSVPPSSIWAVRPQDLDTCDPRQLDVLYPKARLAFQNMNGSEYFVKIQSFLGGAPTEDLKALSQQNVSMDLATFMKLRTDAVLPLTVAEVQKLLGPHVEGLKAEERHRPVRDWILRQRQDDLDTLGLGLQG
Experiment: SPR (Biacore), antibody captured on protein A, MSLN·His as analyte
Measured kon by item
Give your result in M⁻¹ s⁻¹ as a bare value.

Binder	kon [M⁻¹ s⁻¹]
M129-IgG4 (antibody, V domains shown, also called M129 heavy chain antibody) VH: QVQLVESGGGSAQAGGSLILSCVASANLFTIDALGWYRQAPGPKRELVAAISSGGNKYYADAVKGRFTISRDTLTKTMWLQMNNLKPEDTAMYYCAAEDYGLGQRSWGMGTQVTVSS	1.4e+06

// switching to the query binder
Req: Recorded kon for M044-IgG4 (antibody, V domains shown, also called M044 heavy chain antibody) VH: QVQVVESGGGFVQAGGSLRLSCAASTPIISIAYMGWYRQISEKERQLVATINSGGKTYYADSVKGRFTISRDNAKNTLYLQMNMLKPEDTGMYYCAASNKDYNDYDPDWGQGTQVTVSS , please?
Resp: 53700
